- Subject of test: Acetylcholinesterase (Torpedo californica, UniProt P04058)
- Sequence (P04058 whole entry): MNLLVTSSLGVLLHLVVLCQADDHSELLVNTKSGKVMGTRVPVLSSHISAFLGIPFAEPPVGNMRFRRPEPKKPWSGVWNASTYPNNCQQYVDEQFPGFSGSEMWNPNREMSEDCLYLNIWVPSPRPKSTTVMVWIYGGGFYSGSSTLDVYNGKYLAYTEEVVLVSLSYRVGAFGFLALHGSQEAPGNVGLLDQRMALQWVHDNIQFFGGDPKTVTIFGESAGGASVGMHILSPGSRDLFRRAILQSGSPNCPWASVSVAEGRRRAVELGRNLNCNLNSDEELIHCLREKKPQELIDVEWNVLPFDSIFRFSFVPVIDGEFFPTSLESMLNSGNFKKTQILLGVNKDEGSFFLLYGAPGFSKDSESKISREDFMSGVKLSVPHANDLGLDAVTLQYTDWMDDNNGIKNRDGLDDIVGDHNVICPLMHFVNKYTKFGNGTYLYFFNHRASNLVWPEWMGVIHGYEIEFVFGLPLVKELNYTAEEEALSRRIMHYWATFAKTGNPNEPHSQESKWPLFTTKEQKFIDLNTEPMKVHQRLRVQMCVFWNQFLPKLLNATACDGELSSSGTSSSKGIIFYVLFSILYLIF
- Assay text: Inhibition of Torpedo californica […] AChE using acetylthiocholine/DTNB as substrate preincubated for 10 mins followed by substrate addition measured every 30 secs for 30 mins by Ellmans method
- Design: species or system Tetronarce californica
pIC50: −log10 of the molar value.
Ranges used to classify pIC50: 0 (below 7), 1 (7 to below 8), 2 (8 or more)

{"Structure as smiles": "Cc1cccc(Nc2ccccc2C(=O)NCC(=O)NCCCCCCCNc2c3c(nc4cc(Cl)ccc24)CCCC3)c1C", "Cat": 2}
{"Structure as smiles": "Cc1cccc(Nc2ccccc2C(=O)NCCCCCCCNc2c3c(nc4cc(Cl)ccc24)CCCC3)c1C", "Cat": 0}
{"Structure as smiles": "Cc1cccc(Nc2ccccc2C(=O)NCCC(=O)NCCCCNc2c3c(nc4cc(Cl)ccc24)CCCC3)c1C", "Cat": 0}
{"Structure as smiles": "Cc1cccc(Nc2ccccc2C(=O)NCCCCCC(=O)NCCCNc2c3c(nc4cc(Cl)ccc24)CCCC3)c1C", "Cat": 2}
{"Structure as smiles": "Cc1cccc(Nc2ccccc2C(=O)NCCCCCCCNc2c3c(nc4ccccc24)CCCC3)c1C", "Cat": 2}

Task: # bin label for `Cc1cccc(Nc2ccccc2C(=O)NCCC(=O)NCCCCCCCCNc2c3c(nc4cc(Cl)ccc24)CCCC3)c1C`
Output: 1

Task: Could you place `Cc1cccc(Nc2ccccc2C(=O)NCC(=O)NCCCCCCCCNc2c3c(nc4cc(Cl)ccc24)CCCC3)c1C` in its proper category? Many thanks.
Output: 1

Task: Returns: class label. Input: `Cc1cccc(Nc2ccccc2C(=O)NCCCC(=O)NCCCCCCNc2c3c(nc4cc(Cl)ccc24)CCCC3)c1C`
Output: 1

Task: Record `Cc1cccc(Nc2ccccc2C(=O)NCCC(=O)NCCCNc2c3c(nc4ccccc24)CCCC3)c1C` — which class?
Output: 0

Task: # classify by pIC50 band: `Cc1cccc(Nc2ccccc2C(=O)NCCCCCCCCNc2c3c(nc4cc(Cl)ccc24)CCCC3)c1C`
Output: 2

Task: For the record `Cc1cccc(Nc2ccccc2C(=O)NCCCCCC(=O)NCCCCNc2c3c(nc4cc(Cl)ccc24)CCCC3)c1C` , report the class its pIC50 corresponds to.
Output: 1

Task: Classify this molecule: `Cc1cccc(Nc2ccccc2C(=O)NCCCCCCCCCCCCNc2c3c(nc4cc(Cl)ccc24)CCCC3)c1C`
Output: 0

Source of measurements: ChEMBL document CHEMBL3217623
